Provenance of the data: the nanobody polyreactivity screen of Harvey et al. (2022)

- test: yeast display, Sf9 membrane polyspecificity reagent, FACS + sequencing; frameworks hold sequencing errors
endpoint.label: polyreactivity (PSR sort gate)

Field: example entries. Status: answers known.
QVQLVESGGGLVQAGGSLRLSCAASGRISYYYMGWYRQAPGKERELVAAISWNGGRTYYADSVKGRFTISRDNAKNTVYLQMNSLKPEDTAVYYCAARFYSRAFWPAYYYWGQGTQVTVSS :: high polyreactivity
QVQLVESGGGLDQAGVSLRLSSAASGSTFVRNAMGCYRQAPGKEREWVAAINIGGSTYYADSVKGRFTISRDNAKNTVYLQMNSLKPEDTAVYYFAARIKYRYDWGQGTQVTVSS :: low polyreactivity
QVQLVESGGGLVQAGGSLRLSCAASGRIFDDYDMGWYRQAPGKERELVAAISFDGGNTYADSVKGRFTISRDNAKNTVYLQMNSLKPEDTAVYYCARDDTSPGYGDQSSNAAYYYWGQGTQVTVSS :: low polyreactivity
QVHLVESGGGLVQAGGSLRLSCAASGSIFRGYAMGWYRQAPGRERELVAAISRSGGSTYYADSVKGRFTISRDNAKNTVYLQRNSLKPEDTAGYYCAALLRGRYRMYYWGQGTQVTVSS :: high polyreactivity
QVQRVESGGGLVQAGGRLRLTCAASGSTFYVNAMVWYRQAPGKERELVAGISFSDGSTYYADSVKGRFTISRDNAKNTVYLQMNSLKPEDTAVYYCATVGAFDIYYGYGYWGQGTQVTVSS :: low polyreactivity

polyreactivity (PSR sort gate) measured on QVQLVESGGGLVQAGGSLRLSCAASGRIFSSYAMGWYRQAPGKERELVAAISRSGARTYYADSVKGRFTISRDNAKNTVYLQMNSLKPEDTAVYYCAAVTVAGYDYWGQGTQVTVSS = high polyreactivity

The sequence QVQLVESGGDLVQAGGSLRLSCAASGITFVYNAMGWYRQAPGKESELVAGITWSGSSTYYADSVKGRFTISRDNAKNTVYFQMNSLKPEDTAVYYCAAYLYERTTRYRVYLQWKHGYWGQGTQVTVSS showed polyreactivity (PSR sort gate) equal to high polyreactivity

Input QVQLVESGGGLVQAGGSLRLSCAASGRTFSRYVMGWYRQAPGKERELVAAISRTGGRTYYADSVKGRFTISRDNAKNTVYLQMNSLKPEDTAVYYCNAGTVLISTYDYWGQGTQVTVSS . Output polyreactivity (PSR sort gate): high polyreactivity

get_value(item= QVQLVESGGGLVQAGGSLRLSCAASGSTFYKNAMGWYRPAPGKERELVAAISGSGGRTYYADSVKGRFTISRDNAKNTVYLQMNSLKPEDTAVYYCNAARAYYSLYYGLDYWGQGTQVTVSS , readout=polyreactivity (PSR sort gate)) returns high polyreactivity

Lab note: measured polyreactivity (PSR sort gate) of QVQLVESGGGLVQAGGSLRLSCAASGRTFHYYAMGWYRQAPGKERELVAAITRGGNTYYADSVKGRFTISRDNAKNTVYLQMNSLKPEDTAVYYCAKDNHFEAYRYDYWGQGTQVTVSS was low polyreactivity

Sure, the documented polyreactivity (PSR sort gate) for QVQLVESGGGLVQAGGSLRLSCAASGSTLWVYAMGWYRQAPGKERELVAAITQSTGDTHYADSVKGRFTISRDNAKNTVYLQMNSLKPEDTAVYYCAADSYLSVYDPYGYWGQGTQVTVSS is low polyreactivity

// polyreactivity (PSR sort gate) value for QVQLVESGGGLVQAGGSLRLSCSATGSTFTINSMGWYRQAPGKERELVAATSKRGTNTYYADSVKGRFTISRDNAKNTVYLQMNSMKTEDSAVYYCKAPGHRQNGLGDYWGQGTQVTVSS : high polyreactivity

polyreactivity (PSR sort gate) measured on QVQLVESGGGLVQAGGSLRLSCAASGSTFQWYVMGWYRQAPGKERELVAAITWSGGSTYYADSVKGRFTISRDNAKNTVYLQMNSLKPEDTAVYYCNAVFWIWNAGYDYWGQGTQVTVSS = low polyreactivity

The value of polyreactivity (PSR sort gate) measured for the sequence HVQLVESGGGLVQAGGSLRLSCAASGSIFDTYAMGWYRQAPGKERELVAAINFSDGDTYYADSVKGRFTSSRDNSKNTVYLQLNSLKPEDTAVYDCAAEVWDPPEYYDEYDYWGQGTQVTVSS turned out to be low polyreactivity
